Provide the recorded growth for the entries that follow.
- Tested on: BT-549 breast
- Assay text: NCI-60 one-dose screen, 48 h (100 = growth as untreated, 0 = no growth, -100 = all killed)
- Study conditions: 10 µM unless noted
This is part of a sample that, as a whole, favours compounds with a hit. Of some 83,000 tested, about 20% had one in any assay.
Expressed in %, but write only the number.

Given the entry CCOC(=O)c1ccccc1SC(C[N+](=O)[O-])c1ccccc1 (stereo unspecified) , report its measured growth.
88.4

Suppose we examine the compound CC(=O)Nc1nonc1-c1nc2ccccc2n1Cc1ccc(C(C)(C)C)cc1 ; what growth value has been reported?
93.2

What value of growth has been recorded for this entry: O=C(NNC(=S)Nc1ccccc1)c1ccc(Nc2ncnc3c2cnn3-c2cccc(Br)c2)cc1
104

Need growth, item O=C(O)c1cn(-c2ccccc2)nc1-c1ccc(O)cc1
99.3

Name the reported growth value associated with the compound CC1=C(C(=O)Nc2ccc(F)cc2)C(c2ccc(C)cc2)C2=C(CC(C)(C)CC2=O)N1 (stereo unspecified)
97.2

Consider the compound ClCc1cccc(CSc2ncnc3c2ncn3Cc2cccc(CCl)c2)c1 and give its measured growth.
-69.6

Reported growth for O=C(Nc1ccc2ncnc(Nc3ccc(F)c(Cl)c3)c2c1)c1cccs1 : what is it?
68.3

Look up growth for this compound: O=C(O)C1[S][Sb]([CH](C(=O)O)[CH](C(=O)O)[Sb]2[S]C(C(=O)O)C(C(=O)O)[S]2)[S]C1C(=O)O (stereo unspecified)
63.8

Param item = C#CC[C@@H]1C[C@]2(C)[C@H]3CC=C4[C@H]5CC(C)(C)CC[C@]5(C(=O)NCCCCN)CC[C@@]4(C)[C@]3(C)CC[C@H]2C(C)(C)[C@H]1OC(C)=O ; retrieve measured growth.
97.8

Sample Fc1ccc(-c2nnc(N3CCOCC3)c3ccccc23)cc1 — what was its growth?
81.4

Name the reported growth value associated with the compound O=[N+]([O-])c1ccccc1CN1CCCCC1
98.4

Source of measurements: PubChem BioAssay (NCI)
